PROCEDURE_SUMMARY: solubility in water and buffered solutions
Type: physicochemical
SETTINGS: water and buffered solutions between pH 2 and 8
Structures can show the parent of a compound that is named as a salt.
MEASURED_QUANTITY: solubility

INSERT INTO measurements (molecule, result) VALUES
  ('COc1ncc(C(CC(=O)O)CC(=O)CCCCc2ccc3c(n2)NCCCC3)cn1 (stereo not shown) [salt of formula I]', '> 12 mg/mL');
